Origin of values: patent US20220251105A1

Assay: toxicokinetics, 28-day mouse study;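 further: AUC to the last measurable time point (AUClast)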
Format: in vivo
Conditions: female, Crl:CD1 (ICR), mouse, plasma, po, 15 mg/kg/day, mice, Study Day 1, female, 15 mg/kg/day
Excerpt: There were no notable sex-related differences in Compound 1 exposure. Additionally, toxicokinetic animals received the vehicle or compound in the same manner and dose levels as the main study groups.
Readout kind: AUC (ng·h/mL)
Give just the numeric value; ng·h/mL need not be written.

// field: AUC; key: CCOCc1cnc(Cl)nc1Oc1ccc2c(ccc3sc4c(c32)NC[C@@H](C)NC4=O)n1 [Compound 1] ; value = 5360

###

assay: exposure in 91-day mouse toxicology study; details: mouse, plasma, 100 mg/kg/day
Readout kind: AUC (µg·h/mL)
Give just the numeric value; µg·h/mL need not be written.

// field: AUC; key: CCOCc1cnc(Cl)nc1Oc1ccc2c(ccc3sc4c(c32)NC[C@@H](C)NC4=O)n1 [Compound 1] ; value = 28.8

###

assay: single oral dose pharmacokinetics in cynomolgus monkeys; assay type: in vivo, cynomolgus monkey; conditions: cynomolgus monkey, plasma; monkey, female, single oral 375 mg/kg
Readout kind: AUC(0-inf)
Returns: string containing the number followed by the unit.

// field: AUC(0-inf); key: CCOCc1cnc(Cl)nc1Oc1ccc2c(ccc3sc4c(c32)NC[C@@H](C)NC4=O)n1 ; value = 22700 ng·h/mL

###

experiment: Phase 1 first in human study, pharmacokinetics; assay type: in vivo; conditions: human, plasma; single oral dose, 3 mg to 400 mg; read-out: median Tmax
Readout kind: Tmax

// field: Tmax; key: CCOCc1cnc(Cl)nc1Oc1ccc2c(ccc3sc4c(c32)NC[C@@H](C)NC4=O)n1 ; value = 1 to 3 h

###

experiment: toxicokinetics, 28-day mouse study; assay type: in vivo; details: female, Crl:CD1 (ICR), mouse, plasma, po, 15 mg/kg/day, mice, Study Day 21, female, 15 mg/kg/day;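 further: AUC to the last measurable time point (AUClast)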
Readout kind: AUC (ng·h/mL)
Give just the numeric value; ng·h/mL need not be written.

// field: AUC; key: CCOCc1cnc(Cl)nc1Oc1ccc2c(ccc3sc4c(c32)NC[C@@H](C)NC4=O)n1 ; value = 5980

###

test: toxicokinetics, 28-day monkey study; assay type: in vivo, cynomolgus monkey; conditions: female, cynomolgus, cynomolgus monkey, plasma, po, 15 mg/kg/day, monkey, Study Day 21, female, 15 mg/kg/day (so in the source)
Readout kind: Cmax (ng/mL)
Give just the numeric value; ng/mL need not be written.

// field: Cmax; key: CCOCc1cnc(Cl)nc1Oc1ccc2c(ccc3sc4c(c32)NC[C@@H](C)NC4=O)n1 [Compound 1] ; value = 818
